Molecular target: HLA-A*6802 (Homo sapiens, UniProt P04439, A269V/D140Y/D185E/E176V/E277Q/E87N/F33Y/G231S/I121R/I166T/I218V/L180W/L300P/L318F/N151K/P208A/P217A/Q86R/R138H/R169H/S129P/T345S/V36M)
Assay: MHC-peptide binding assay
Residues, ends and D or L forms follow the SMILES beside them.
# IC50 values compiled below

| molecule | IC50 (nM) |
| --- | --- |
| CC[C@H](C)[C@H](NC(=O)[C@H](CO)NC(=O)[C@@H](NC(=O)[C@@H](NC(=O)[C@H](CCSC)NC(=O)[C@@H](N)Cc1ccccc1)[C@@H](C)CC)C(C)C)C(=O)N[C@@H](CO)C(=O)N[C@@H](CC(C)C)C(=O)N[C@H](C(=O)O)C(C)C [SAG2X351–359] (H-FMIVSISLV-OH) | 48 |
| CC(C)C[C@H](NC(=O)CNC(=O)[C@H](CC(C)C)NC(=O)[C@H](CC(C)C)NC(=O)[C@@H](N)Cc1ccccc1)C(=O)N[C@@H](CC(C)C)C(=O)N[C@H](C(=O)N[C@@H](Cc1c[nH]cn1)C(=O)N[C@H](C(=O)O)C(C)C)C(C)C [SAG3_375–383] (H-FLLGLLVHV-OH) | 173 |
